// provenance: the supplement of paper PMC10567573

B1: ZNF277 (parent)
chain: ILREELQKQRLREILEQQQQERND

Variants of: B1
test: protein stability index of a GFP-peptide fusion (GPS, HEK-293T) (PSI 1-6); higher = more stable;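 further: lentivirally expressed fusions sorted by FACS into six bins by GFP to DsRed ratio, PSI derived from sequencing read proportions per bin multiplied by bin number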
condition-info: c terminus: a fixed tail appended
observable: protein stability index
Answers are plain numbers.

>  <sequence-variant>
E21C

>  <protein stability index>
3.04

$$$$
>  <sequence-variant>
Q19N

>  <protein stability index>
3.5

$$$$
>  <sequence-variant>
R10Y

>  <protein stability index>
4.3

$$$$
>  <sequence-variant>
L6C

>  <protein stability index>
4.18

$$$$

Each variant below has a reported value. Please supply its protein stability index.
1. Q17D
2. Q17N

1. 4.54
2. 4.51

Each variant below has a reported value. Please supply its protein stability index.
1. Q18V
2. E4S
3. I14L
4. R10S
5. E16T
6. L2I
7. R3P

3.83
4.18
3.01
4.7
4.71
4.41
5.31

Each variant below has a reported value. Please supply its protein stability index.
1. Q9V
2. L2S

1: 4.15; 2: 5.33

Each variant below has a reported value. Please supply its protein stability index.
1. E16L
2. N23F

3.63
3.73

Each variant below has a reported value. Please supply its protein stability index.
1. E4Q
2. E16F
3. Q9W
4. R22P
5. Q18I
6. Q18E

1. 3.99
2. 3.66
3. 3.53
4. 4.57
5. 2.52
6. 4.93

Each variant below has a reported value. Please supply its protein stability index.
1. N23I
2. R12T
3. E21L
4. R10K
5. L15E
6. N23M
7. N23A

[4.02, 5.29, 3.52, 4.59, 4.99, 4.14, 4.53]
